Cited source for all entries: paper PMC3377984

assay: Caco-2 bidirectional permeability assay; type: in vitro ADME, human; conditions: human
parameter: efflux ratio at 5 µM
Keep it simple and answer with nothing but the number.

Using the record for C[C@H]1O[C@@H](O[C@H]2[C@@H](O)C[C@H](O[C@H]3[C@@H](O)C[C@H](O[C@H]4CC[C@@]5(C)[C@H](CC[C@@H]6[C@@H]5C[C@@H](O)[C@]5(C)[C@@H](C7=CC(=O)OC7)CC[C@]65O)C4)O[C@@H]3C)O[C@@H]2C)C[C@H](O)[C@@H]1O [Digoxin control, Digoxin] , report its efflux ratio at 5 µM.
20.2

----------
assay: Caco-2 bidirectional permeability assay; assay type: in vitro ADME, human; conditions: human
parameter: Papp B→A at 5 µM (×10⁻⁶ cm/s)
Note: unit ×10⁻⁶ cm/s is implicit; provide only the numeric part.

Using the record for C[C@H]1O[C@@H](O[C@H]2[C@@H](O)C[C@H](O[C@H]3[C@@H](O)C[C@H](O[C@H]4CC[C@@]5(C)[C@H](CC[C@@H]6[C@@H]5C[C@@H](O)[C@]5(C)[C@@H](C7=CC(=O)OC7)CC[C@]65O)C4)O[C@@H]3C)O[C@@H]2C)C[C@H](O)[C@@H]1O [Digoxin control, Digoxin] , report its Papp B→A at 5 µM.
12.5
